Values were extracted from paper PMC6902473.

Experiment: clinical
Conditions: human, in vivo, 250 mg/m2, Tmax
experimental_endpoint: Tmax (h)
Write the number in h without appending the unit.

Consider O=C(CCCCCCC(=O)Nc1ccccc1)NO [vorinostat] . Its measured Tmax is 1.75

###

Assay: Plasma pharmacokinetics of vorinostat after oral administration (non-compartmental analysis)
Conditions: human, in vivo, 280 mg/m2
experimental_endpoint: AUC(0-t)

Consider O=C(CCCCCCC(=O)Nc1ccccc1)NO . Its measured AUC(0-t) is 4.96 µM·h

###

Test: clinical
Details: human, in vivo, 250 mg/m2, Clearance
experimental_endpoint: Clearance (mL/min)
Write the number in mL/min without appending the unit.

Consider O=C(CCCCCCC(=O)Nc1ccccc1)NO . Its measured Clearance is 3150

###

Assay: clinical
Conditions: human, in vivo, po, 530 mg/m2, t1/2, Median
experimental_endpoint: half-life (h)
Write the number in h without appending the unit.

Consider O=C(CCCCCCC(=O)Nc1ccccc1)NO [vorinostat] . Its measured half-life is 1.46

###

Experiment: clinical
Conditions: human, in vivo, 480 mg/m2, Clearance
experimental_endpoint: Clearance (mL/min)
Write the number in mL/min without appending the unit.

Consider O=C(CCCCCCC(=O)Nc1ccccc1)NO [vorinostat] . Its measured Clearance is 3950

###

Test: clinical
Settings: human, in vivo, Cmax
experimental_endpoint: Cmax

Consider O=C(CCCCCCC(=O)Nc1ccccc1)NO [vorinostat] . Its measured Cmax is > 0.27 µg/mL

###

Test: clinical
Conditions: human, in vivo, 280 mg/m2, t1/2
experimental_endpoint: half-life (h)
Write the number in h without appending the unit.

Consider O=C(CCCCCCC(=O)Nc1ccccc1)NO . Its measured half-life is 1.5

###

Assay: Plasma pharmacokinetics of vorinostat after oral administration (non-compartmental analysis)
Settings: read-out: Cmax, Minimum; 530 mg/m2/d oral, plasma, minimum of 3 values
experimental_endpoint: Cmax (nM)
Write the number in nM without appending the unit.

Consider O=C(CCCCCCC(=O)Nc1ccccc1)NO [vorinostat] . Its measured Cmax is 1710

###

Experiment: clinical
Conditions: human, in vivo, 180 mg/m2, Clearance
experimental_endpoint: Clearance (mL/min)
Write the number in mL/min without appending the unit.

Consider O=C(CCCCCCC(=O)Nc1ccccc1)NO [vorinostat] . Its measured Clearance is 3030

###

Assay: clinical
Settings: human, in vivo, 430 mg/m2, t1/2
experimental_endpoint: half-life (h)
Write the number in h without appending the unit.

Consider O=C(CCCCCCC(=O)Nc1ccccc1)NO . Its measured half-life is 2.49

###

Assay: clinical
Conditions: human, in vivo, 230 mg/m2, Tmax
experimental_endpoint: Tmax (h)
Write the number in h without appending the unit.

Consider O=C(CCCCCCC(=O)Nc1ccccc1)NO . Its measured Tmax is 1.5

###

Experiment: clinical
Conditions: human, in vivo, 130 mg/m2, Vz
experimental_endpoint: Vd (L)
Write the number in L without appending the unit.

Consider O=C(CCCCCCC(=O)Nc1ccccc1)NO . Its measured Vd is 336

###

Experiment: clinical
Conditions: human, in vivo, 214 mg/m2, Clearance
experimental_endpoint: Clearance (mL/min)
Write the number in mL/min without appending the unit.

Consider O=C(CCCCCCC(=O)Nc1ccccc1)NO . Its measured Clearance is 6650

###

Test: clinical
Details: human, in vivo, 430 mg/m2, Clearance
experimental_endpoint: Clearance (mL/min)
Write the number in mL/min without appending the unit.

Consider O=C(CCCCCCC(=O)Nc1ccccc1)NO . Its measured Clearance is 2900
